Target: human orexin-2 receptor (Homo sapiens)
Assay: Intracellular calcium measurements (FLIPR), orexin receptor antagonistic activity, OX2
Settings: CHO cells expressing the human orexin-2 receptor, 10 nM orexin-A as agonist
pIC50: −log10 of the molar value.
We use 7 as the dividing line for pIC50: on or above the line is 1 (yes), below is 0 (no).

Worked examples, 2 compounds total:
{"given smiles": "Cc1nc(C(=O)N2[C@H](CNC(=O)c3nccc4ccccc34)C[C@@H]3C[C@@H]32)c(-c2cccc(F)c2)s1", "assayed target": "human orexin-2 receptor (Homo sapiens)", "classification": "0 (no)"}
{"given smiles": "Cc1cccc(-c2sc(C)nc2C(=O)N2[C@H](CNC(=O)c3cccc(C(F)(F)F)c3)C[C@@H]3C[C@@H]32)c1", "assayed target": "human orexin-2 receptor (Homo sapiens)", "classification": "1 (yes)"}

Can "Nc1nc(C(=O)N2[C@H](CNC(=O)c3cccc4c3OCCO4)C[C@@H]3C[C@@H]32)c(-c2cccc(F)c2)s1" be said to have pIC50 at or above 7?
1 (yes)

---

Biological target: human orexin-1 receptor (Homo sapiens)
Sequence (O43613 1-425): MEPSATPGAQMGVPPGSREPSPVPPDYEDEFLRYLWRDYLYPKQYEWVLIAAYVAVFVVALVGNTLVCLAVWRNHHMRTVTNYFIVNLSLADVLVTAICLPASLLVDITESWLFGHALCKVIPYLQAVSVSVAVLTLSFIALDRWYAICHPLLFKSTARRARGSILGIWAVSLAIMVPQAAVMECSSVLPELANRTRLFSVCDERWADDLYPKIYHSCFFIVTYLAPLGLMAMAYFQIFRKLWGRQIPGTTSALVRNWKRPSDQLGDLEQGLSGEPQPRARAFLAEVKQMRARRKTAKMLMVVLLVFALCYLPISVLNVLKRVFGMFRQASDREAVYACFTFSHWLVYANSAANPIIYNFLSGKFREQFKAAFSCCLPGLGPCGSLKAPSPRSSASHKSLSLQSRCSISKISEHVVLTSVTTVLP
Test: Intracellular calcium measurements (FLIPR), orexin receptor antagonistic activity, OX1
Details: CHO cells expressing the human orexin-1 receptor, 10 nM orexin-A as agonist
value kind: pIC50
The quantity pIC50 is defined as the negative base-10 logarithm of the molar concentration.

{"compound": "Cc1cccc(-c2sc(C)nc2C(=O)N2[C@H](CNC(=O)c3cccc4c3OCCN4C)C[C@@H]3C[C@@H]32)c1 [Example 130]", "assayed target": "human orexin-1 receptor (Homo sapiens)", "pIC50": 7.12}
{"compound": "O=C(c1nc(C2CC2)sc1-c1ccccc1)N1[C@H](CNc2ncc(Br)cn2)C[C@@H]2C[C@@H]21 [Example 265]", "assayed target": "human orexin-1 receptor (Homo sapiens)", "pIC50": 6.88}
{"compound": "Cc1cccc(-c2sc(C)nc2C(=O)N2[C@H](CNC(=O)c3ccc4ccccc4n3)C[C@@H]3C[C@@H]32)c1 [Example 93]", "assayed target": "human orexin-1 receptor (Homo sapiens)", "pIC50": 7.85}
{"compound": "O=C(NC[C@@H]1C[C@@H]2C[C@@H]2N1C(=O)c1ccccc1-c1cccc(Cl)c1)c1cccc2occc12 [Example 8]", "assayed target": "human orexin-1 receptor (Homo sapiens)", "pIC50": 7.35}
{"compound": "Cc1nc2sccn2c1C(=O)NC[C@@H]1C[C@@H]2C[C@@H]2N1C(=O)c1ccccc1-c1cccc(Cl)c1 [Example 17]", "assayed target": "human orexin-1 receptor (Homo sapiens)", "pIC50": 7.82}
{"compound": "Cc1nc(C(=O)N2[C@H](CNC(=O)c3cccc4c3CCO4)C[C@@H]3C[C@@H]32)c(-c2cccc(F)c2C)s1 [Example 199]", "assayed target": "human orexin-1 receptor (Homo sapiens)", "pIC50": 6.86}

Item Cc1cccc(-c2sc(C)nc2C(=O)N2[C@H](CNc3nccc(C(F)(F)F)n3)C[C@@H]3C[C@@H]32)c1 [Example 274] with human orexin-1 receptor (Homo sapiens) - pIC50?
6.96

Same again, this time with O=C(NC[C@@H]1C[C@@H]2C[C@@H]2N1C(=O)c1ncsc1-c1cccc(Cl)c1)c1cccc2c1CCO2 [Example 212]
6.96

And for Cc1cc(C)cc(-c2sc(C)nc2C(=O)N2[C@H](CNc3ncc(Br)cn3)C[C@@H]3C[C@@H]32)c1 [Example 255] ?
7.43

---

This section presents compounds with their documented log10 of IC50 values.
Target: human orexin-2 receptor (Homo sapiens, UniProt O43614)
Sequence (O43614 1-444): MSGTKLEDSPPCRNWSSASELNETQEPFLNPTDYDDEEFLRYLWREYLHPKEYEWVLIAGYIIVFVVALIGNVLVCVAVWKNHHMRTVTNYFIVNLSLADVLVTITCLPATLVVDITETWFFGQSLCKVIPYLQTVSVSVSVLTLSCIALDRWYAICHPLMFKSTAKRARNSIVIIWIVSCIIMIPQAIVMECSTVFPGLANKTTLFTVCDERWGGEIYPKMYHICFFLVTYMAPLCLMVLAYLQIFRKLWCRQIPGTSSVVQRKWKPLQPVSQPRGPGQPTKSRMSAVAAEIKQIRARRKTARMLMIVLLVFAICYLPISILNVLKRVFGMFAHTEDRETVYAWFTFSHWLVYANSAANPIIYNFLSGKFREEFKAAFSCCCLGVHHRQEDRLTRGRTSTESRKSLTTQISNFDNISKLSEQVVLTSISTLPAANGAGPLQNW
Assay: Intracellular calcium measurements (FLIPR), orexin receptor antagonistic activity, OX2
Conditions: CHO cells expressing the human orexin-2 receptor, 10 nM orexin-A as agonist
Reminder: these figures are log10 of reported IC50, in nM before transformation.

Item under review: "Cc1cccc(-c2sc(C)nc2C(=O)N2[C@H](CNC(=O)c3ccc4ccccc4n3)C[C@@H]3C[C@@H]32)c1" . Reported log10 of IC50?
1.60

Try the compound "Cc1nc(C(=O)N2[C@H](CNC(=O)c3cccc4c3CCO4)C[C@@H]3C[C@@H]32)c(-c2ccc(Br)cc2)s1"
1.54

Let us now turn to "CCc1cnc(NC[C@@H]2C[C@@H]3C[C@@H]3N2C(=O)c2nc(C)sc2-c2cccc(C)c2)nc1"
2.19

Also need "Cc1nc(C(=O)N2[C@H](CNc3ncc(Br)cn3)C[C@@H]3C[C@@H]32)c(-c2ccc(F)c(F)c2)s1" , thanks.
2.16

Same read-out for "Cc1nc2sccn2c1C(=O)NC[C@@H]1C[C@@H]2C[C@@H]2N1C(=O)c1nc(N(C)C)sc1-c1ccccc1" ?
1.64

Consider next the compound "Cc1cccc(-c2sc(N)nc2C(=O)N2[C@H](CNC(=O)c3cccc4cccnc34)C[C@@H]3C[C@@H]32)c1" in the same way.
1.76

Input "Cc1nc(C(=O)N2[C@H](CNC(=O)c3noc4ccccc34)C[C@@H]3C[C@@H]32)c(-c2cccc(Cl)c2)s1"
1.87

Same for "Cc1cccc(-c2sc(C)nc2C(=O)N2[C@H](CNC(=O)c3c(C)nc4sccn34)C[C@@H]3C[C@@H]32)c1"
1.38

Now try "COc1ccc(C(=O)NC[C@@H]2C[C@@H]3C[C@@H]3N2C(=O)c2nc(C)sc2-c2cccc(C)c2)cc1OC" .
1.87

# iterate: "Cc1cccc(-c2sc(N)nc2C(=O)N2[C@H](CNC(=O)c3cccc(Br)c3)C[C@@H]3C[C@@H]32)c1"
1.76

How about this compound: "Cc1cccc(-c2sc(N)nc2C(=O)N2[C@H](CNC(=O)c3c(C)noc3C)C[C@@H]3C[C@@H]32)c1"
1.97

How about this compound: "Cc1nc(C(=O)N2[C@H](CNC(=O)c3cccc4c3CCO4)C[C@@H]3C[C@@H]32)c(-c2cccc(F)c2C)s1"
1.61

Queued: "Nc1nc(C(=O)N2[C@H](CNC(=O)c3cnc4sccn34)C[C@@H]3C[C@@H]32)c(-c2cccc(F)c2)s1"
1.04

Another compound: "Cc1cccc(-c2sc(C)nc2C(=O)N2[C@H](CNC(=O)c3cccc4c3OCCN4C)C[C@@H]3C[C@@H]32)c1"
2.11

---

Molecular target: human orexin-1 receptor (Homo sapiens)
Construct: expressed in transfected cells; host or cells: CHO (Chinese hamster ovary) cells, G418 selection
Test: Intracellular calcium measurements (FLIPR), orexin receptor antagonistic activity, OX1
Assay type: cell-based
Conditions: CHO cells expressing the human orexin-1 receptor, 10 nM orexin-A as agonist
value kind: pIC50
Answer as the number alone; pIC50 is minus log10 of concentration in mol/L.

These recorded examples may help you get a feel for the data.
{"given smiles": "O=C(NC[C@@H]1C[C@@H]2C[C@@H]2N1C(=O)c1nc(C2CC2)sc1-c1ccccc1F)c1cccc2c1CCO2", "measured number": 7.24}
{"given smiles": "Nc1nc(C(=O)N2[C@H](CNC(=O)c3cnc4sccn34)C[C@@H]3C[C@@H]32)c(-c2cccc(F)c2)s1", "measured number": 7.92}
{"given smiles": "CCc1cnc(NC[C@@H]2C[C@@H]3C[C@@H]3N2C(=O)c2nc(C)sc2-c2cccc(C)c2)nc1", "measured number": 7.38}
{"given smiles": "Cc1nc(C(=O)N2[C@H](CNC(=O)c3noc4ccccc34)C[C@@H]3C[C@@H]32)c(-c2cccc(Cl)c2)s1", "measured number": 7.29}
{"given smiles": "Cc1cccc(-c2sc(C)nc2C(=O)N2[C@H](CNC(=O)c3cccc(C(F)(F)F)c3)C[C@@H]3C[C@@H]32)c1", "measured number": 7.38}
{"given smiles": "COc1ccc(C(=O)NC[C@@H]2C[C@@H]3C[C@@H]3N2C(=O)c2nc(C)sc2-c2cccc(C)c2)cc1OC", "measured number": 5.70}
{"given smiles": "Cc1cccc(-c2sc(N)nc2C(=O)N2[C@H](CNC(=O)c3cccc4cccnc34)C[C@@H]3C[C@@H]32)c1", "measured number": 7.35}
{"given smiles": "Cc1cccc(-c2sc(N)nc2C(=O)N2[C@H](CNC(=O)c3cccc(Br)c3)C[C@@H]3C[C@@H]32)c1", "measured number": 7.21}
{"given smiles": "Cc1nc(C(=O)N2[C@H](CNC(=O)c3cccc4c3CCO4)C[C@@H]3C[C@@H]32)c(-c2ccc(Br)cc2)s1", "measured number": 6.96}
{"given smiles": "Cc1nc(C(=O)N2[C@H](CNc3ncc(Br)cn3)C[C@@H]3C[C@@H]32)c(-c2ccc(F)c(F)c2)s1", "measured number": 7.21}

So what does the record say about pIC50 for "Cc1nc2sccn2c1C(=O)NC[C@@H]1C[C@@H]2C[C@@H]2N1C(=O)c1nc(N(C)C)sc1-c1ccccc1" ?
7.70

Also check "O=C(NC[C@@H]1C[C@@H]2C[C@@H]2N1C(=O)c1ncsc1-c1cccc(Cl)c1)c1cccc2cccnc12"
7.06

Repeat with "Cc1cccc(-c2sc(C)nc2C(=O)N2[C@H](CNC(=O)c3c(C)nc4sccn34)C[C@@H]3C[C@@H]32)c1"
8.15
